B1: library; a variant is named by its letters at N, in order (parent)
chain: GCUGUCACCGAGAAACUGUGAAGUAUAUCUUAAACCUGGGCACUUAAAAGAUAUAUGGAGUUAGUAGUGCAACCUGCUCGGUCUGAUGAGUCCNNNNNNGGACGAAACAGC

- Variants of: B1
- measurement.description: normalized RNA/DNA level with ligand (relative to sTRSVctl = 100) (log10 (% of sTRSVctl)); HEK293T; ligand: cyclic di-GMP (c-di-GMP-II aptamer); ligand concentration (+) RNA-Seq: 1 mM; higher = less ribozyme self-cleavage, higher mRNA level
- conditions: reporter: mCherry (pCS4076), ligand present: yes
reported.endpoint: normalized RNA/DNA level with ligand (log10)

Worked set:
mutant.designation | result
UUUCAA | 1.86
GCAACG | 1.78
GCCCGA | 1.79
CAGUUG | 1.87
GCGAGC | 1.71

Any idea what its normalized RNA/DNA level with ligand (log10) is? The variant is `UACUAG`
1.84

Returns the measured normalized RNA/DNA level with ligand (log10) for the input variant. Input: `UCCGCC`
1.89

Item `UGCUUU` has what recorded normalized RNA/DNA level with ligand (log10)?
1.87
